- System: N. caninum tachyzoites
- procedure-summary: N. caninum-β-gal tachyzoite proliferation in HFF, 3 days
- Type: cell-based
- condition-set: Neospora caninum, 72 h; concentration that inhibits cell growth by 50%; tachyzoites in HFF, 3 days; read-out: EC50 N. caninum
Catalogue of molecules with associated EC50
Please reply with the bare figure in nM and do not write the unit itself.

Some solved cases for reference:
CC(C)(C)n1nc(-c2ccc3ccccc3c2)c2c(N)ncnc21 [11b] ... 140
CCOc1ccc2cc(-c3nn(CC4CCNCC4)c4ncnc(N)c34)ccc2c1 [15n] ... 50
CCOc1ccc2cc(-c3nn(CC4CCNCC4)c4ncnc(N)c34)ccc2n1 [16n] ... 49
CCOc1ccc2cc(-c3nn(CC4CCOCC4)c4ncnc(N)c34)ccc2n1 [compound 1412] ... 119
CCOc1ccc2cc(-c3nn(C4CCN(C)CC4)c4ncnc(N)c34)ccc2c1 [15h] ... 55

API: the following record is the query input.
**Query** # return recorded EC50 for input CCOc1ccc2cc(-c3nn(C4CCN(CC)CC4)c4ncnc(N)c34)ccc2c1 [15i]
**Result** 99
